Origin of the recorded values: patent US9296741B2

Test: Human liver microsome stability assay
Format: in vitro ADME
Conditions: both sexes, human, microsomes, pH 7.4
# half-life at 0.5 μM per record follows
Note: unit min is implicit; provide only the numeric part.

Guide cases for half-life at 0.5 μM, answers given:
| compound | half-life at 0.5 μM / min |
| --- | --- |
| CCS(=O)(=O)Nc1ccc(Oc2ccc(F)cc2F)c(-c2cn(C)c(=O)c3[nH]c(C(=O)N4CCN(C)CC4)cc23)c1 | 39 |
| Cn1cc(-c2cc(CC(=O)O)ccc2OCc2ccccc2)c2cc[nH]c2c1=O | 37 |
| Cn1cc(-c2cc(C(=O)N3CCC(NC(=O)OC(C)(C)C)C3)ccc2Oc2ccc(F)cc2F)c2cc[nH]c2c1=O (stereo not shown) | 3 |

Name the reported half-life at 0.5 μM value associated with the compound Cn1cc(-c2cc(S(C)(=O)=O)ccc2NCC2CCOC2)c2cc[nH]c2c1=O (stereo not shown)
56
